Molecular target: pooled human IgG (human IgG1,2,3 and 4)
Consider the following proteins; for each one, report its Enzyme Activity Endpoint Assay: scIgG.
Numbers only, in ng/µL.

protein="PRT-456 (protein) MITSVWTKGVTPPTDFIKGEDVFHAPYKAGQGWYDITKAFDGGDDLLCGAATAGNMLHWWFDQNKDQIEAYLKEHPEKQKINFNGEQMFDVKEAIDTKDDQTNSELFNYFKEKAFPYLSTKHLGVFPDHVLDMFINGYRLSLTNHGPTPVKEGSKDPRGGIFDAVFTRGDQSKLLTSRHDLKNKTLNEISQLIKQELTEGKALALSHTYANVRINHVINLWGADFDAEGNLEAIYVTDSDSNASIGMKKYFVGVNSAGKVAISAKEIEDDNIGAQVLGLFTLSTGQDIWNQTNLEHHHHHH" value_measured=0
protein="PRT-324 (protein) MTITSVWTKGVTPPTPEDFRENNEDVLHAPYVANQGWYDITKTFDGKDNLLCGAATAGNMLHWWFDQNKEEIERYLKKHPEKQKIIFGNQELFDVKAAIDTKDSQTNSKLFNYFRDKAFPNLSARQLGVMPDLVLDMFINGYYLNLGKTQSTDVNRPYQDKDKRGGIFDAVFTRGDQTTLLTARHDLKNKGLNEISDLIKQELTEGKALALSHTYANVRINHVINLWGADFDAEGNLIAIYVTDSDANPSIGMKKYFVGRNANGKVAISAKKIEGDNIGAQVLGLFTLSTGQDIWQKLS" value_measured=0
protein="PRT-508 (protein) MITSVWTKGVTPPTDFIKGEDVFHAPYKAGQGWYDITKTFNGKDDLLCGAATAGNMLHWWFDQNKEEIEAYLKKHPEKQKIMFGDQELLDVRKVINTKDSQTNSALFNYFKDKAFPNLSARRLGVMPDLVLDMFINGYYLNVYKTQTTDVNRTYQTKDRRGGIFDAVFTRGDQSKLLTERHDLKNKTLKEISDLIKQELTEGKALGLSHTYANVRINHVINLWGADFDSNGNLEAIYVTDSDSNASIGMKKYFVGVNSAGKVAISAKEIKEDNIGAQVLGLFTLSTGQDIWNQTNLEHHHHHH" value_measured=0

protein PRT-300 (protein) MVTSVWTKGVTPPTDFIKGEDVFHAPYKAGQGWYDITKTFNGKDDLLCGAATAGNMLHWWFDQNKEYIEAYLKKHPEKQKIMFGDQELLDVRKAINTKGSQKNSELFNYFRDKAFPNLSARRLGVMPDLVLDMFINGYYLNVTKTQTTDVNRTYQEKDKRGGIFDAVFTRGDQSKLLTSRHDFKEKGLKEISDLIKQELTEGKALGLSHTYANVRLNHVINLWGADFDSDGNLKAIYVTDSDSNASIGMKKYFVGVNSSGKVAISAKEIKEDNIGAQVLGLFTLSTGQDIWNQTN , Enzyme Activity Endpoint Assay: scIgG observed: 43
